Each entry below carries its reported WCR (50 ppm) rating.
test system: Diabrotica virgifera virgifera Leconte, 2nd instar western corn rootworm (WCR); assay: Western corn rootworm (WCR) soil test; format: in vivo; parameters: key: 0 = no effect; 1 = 10-25% kill; 2 = 26-35% kill; 3 = 36-45% kill; 4 = 46-55% kill; 5 = 56-65% kill; 6 = 66-75% kill; 7 = 76-85% kill; 8 = 86-99% kill; 9 = 100% kill

// known answers, use as guide
O=C(CSC(C[N+](=O)[O-])c1ccc2ccccc2c1)OCc1ccccc1 (racemic)
0
O=[N+]([O-])CC(SCc1ccccc1)c1ccccc1 (centres unmarked)
0
CCOC(=O)CSC(C[N+](=O)[O-])c1cccs1 (centres unmarked)
0
CCOC(=O)CSC(C[N+](=O)[O-])c1ccccc1 (centres unmarked)
7 (7 = 76-85% kill)

Summary for this compound, CCOC(=O)CSC(C[N+](=O)[O-])c1ccc(F)c(F)c1 (centres unmarked) : WCR (50 ppm) rating is 0

====

Test system: Diabrotica virgifera virgifera Leconte, 2nd instar western corn rootworm (WCR)
Assay: Western corn rootworm (WCR) soil test
Assay type: in vivo
Parameters: key: 0 = no effect; 1 = 10-25% kill; 2 = 26-35% kill; 3 = 36-45% kill; 4 = 46-55% kill; 5 = 56-65% kill; 6 = 66-75% kill; 7 = 76-85% kill; 8 = 86-99% kill; 9 = 100% kill
Description: Test solutions are prepared by dissolving the test compound in a 35% acetone in water mixture to give a concentration of 10,000 ppm. Subsequent dilutions are made with water as needed. Diabrotica virgifera virgifera Leconte, 2nd Instar Western Corn Rootworm (WCR) One cc of fine talc is placed in a 30 mL wide-mouth screw-top glass jar. One mL of the appropriate acetone test solution is pipetted onto the talc so as to provide 1.25 mg of active ingredient per jar. […]
Known WCR (50 ppm) rating of a selection of compounds

Worked cases, WCR (50 ppm) rating given:
CCCOC(=O)CSC(C[N+](=O)[O-])c1cccnc1 (stereo not shown) [Example 178]
0
CCCCC(CC)COC(=O)CSC(C[N+](=O)[O-])c1ccccc1 (stereo not shown) [Example 9]
4 (4 = 46-55% kill)
CCCOC(=O)CSC(C[N+](=O)[O-])c1ccco1 (stereo not shown) [Example 199]
8 (8 = 86-99% kill)
O=[N+]([O-])CC(SCc1ccccc1)c1ccc2ccccc2c1 (racemic) [Example 116]
0
O=[N+]([O-])CC(SCc1ccccc1)c1ccc(Cl)cc1 (stereo not shown) [Example 75]
0

Now take the following compound into account.
# compound C=CCSC(C[N+](=O)[O-])c1ccccc1Cl (racemic) [Example 95] ; its WCR (50 ppm) rating = 4 (4 = 46-55% kill)

====

TSM (300 ppm) rating listing for selected molecules.
system: Tetranychus urticae (OP-resistant strain), 2-spotted spider mite (TSM); test: 2-spotted spider mite (TSM) plant dip test; type: in vivo; parameters: key: 0 = no effect; 1 = 10-25% kill; 2 = 26-35% kill; 3 = 36-45% kill; 4 = 46-55% kill; 5 = 56-65% kill; 6 = 66-75% kill; 7 = 76-85% kill; 8 = 86-99% kill; 9 = 100% kill; settings: mortality after 2 days
Field format: numeric only.

Answered cases to consult:
CC(C)CCCCCOC(=O)CSC(C[N+](=O)[O-])c1ccc2c(c1)OCO2 (centres unmarked) [Example 21]
0
COC(=O)CSC(C[N+](=O)[O-])c1cccc(OC)c1 (centres unmarked) [Example 55]
0
CCOC(=O)CSC(C[N+](=O)[O-])c1ccccc1 (centres unmarked) [Example 6]
0
O=C(O)CSC(C[N+](=O)[O-])c1c(F)c(F)c(F)c(F)c1F (centres unmarked) [Example 139]
0

// next entry
So, CCOC(=O)CSC(C[N+](=O)[O-])c1ccc(Cl)cc1 (centres unmarked) [Example 71] ? Its TSM (300 ppm) rating was 0

====

test system: Diabrotica virgifera virgifera Leconte, 2nd instar western corn rootworm (WCR); assay: Western corn rootworm (WCR) soil test; assay type: in vivo
WCR (50 ppm) rating values by entry

Consider the reported WCR (50 ppm) rating for these compounds:
O=[N+]([O-])CC(SCc1ccccc1)c1ccccc1F (centres unmarked)
4 (4 = 46-55% kill)
CCOC(=O)CSc1c(F)c(F)c(C(C[N+](=O)[O-])SCC(=O)OCC)c(F)c1F (centres unmarked)
0
O=C(O)CSC(C[N+](=O)[O-])c1ccc2c(c1)OCO2 (centres unmarked)
0
COc1cccc(C(C[N+](=O)[O-])SCC(=O)OCc2ccccc2)c1 (racemic)
0
Cc1ccc(C(C[N+](=O)[O-])SCC(=O)O)cc1 (centres unmarked)
9 (9 = 100% kill)
CCCCC(CC)COC(=O)CSC(C[N+](=O)[O-])c1ccc(F)cc1 (centres unmarked)
0

Just so you know, measured WCR (50 ppm) rating for CCCSC(C[N+](=O)[O-])c1c(Cl)cccc1Cl (centres unmarked) came out at 0

Briefly, WCR (50 ppm) rating measured for CCOC(=O)CSC(C[N+](=O)[O-])c1ccc2ccccc2c1 (racemic) : 0

The compound O=C(O)CSC(C[N+](=O)[O-])c1c(Cl)cccc1Cl (centres unmarked) showed WCR (50 ppm) rating equal to 3 (3 = 36-45% kill)

WCR (50 ppm) rating reading for O=[N+]([O-])CC(SCc1ccccc1)c1cc(Br)cs1 (centres unmarked) : 0

WCR (50 ppm) rating reading for C=CCSC(C[N+](=O)[O-])c1cccnc1 (centres unmarked) : 0

// field: WCR (50 ppm) rating; key: CCCSC(C[N+](=O)[O-])c1ccc(Cl)cc1 (centres unmarked) ; value = 0

Record C=CCSC(C[N+](=O)[O-])c1ccc2ccccc2c1 (centres unmarked) , field WCR (50 ppm) rating: 0

# WCR (50 ppm) rating of CCCCOC(=O)CSC(C[N+](=O)[O-])c1c(Cl)cccc1Cl (centres unmarked) = 0

Input CCOC(=O)CSC(C[N+](=O)[O-])c1cccc(OC)c1 (centres unmarked) . Output WCR (50 ppm) rating: 0

// WCR (50 ppm) rating value for CC(C)CCCCCOC(=O)CSC(C[N+](=O)[O-])c1ccc2c(c1)OCO2 (centres unmarked) : 0

====

system: Tetranychus urticae (OP-resistant strain), 2-spotted spider mite (TSM); assay: 2-spotted spider mite (TSM) plant dip test; format: in vivo; set-up: key: 0 = no effect; 1 = 10-25% kill; 2 = 26-35% kill; 3 = 36-45% kill; 4 = 46-55% kill; 5 = 56-65% kill; 6 = 66-75% kill; 7 = 76-85% kill; 8 = 86-99% kill; 9 = 100% kill; conditions: mortality after 2 days
assay endpoint: TSM (300 ppm) rating
Enter the number alone.

COC(=O)CSC(C[N+](=O)[O-])c1ccc2ccccc2c1 (racemic) [Example 110]
0

# value of TSM (300 ppm) rating, Tetranychus urticae (OP-resistant strain), 2-spotted spider mite (TSM), item CC(C)c1ccc(C(C[N+](=O)[O-])SCC(=O)O)cc1 (stereo not drawn) [Example 66] = 0

Reported TSM (300 ppm) rating (Tetranychus urticae (OP-resistant strain), 2-spotted spider mite (TSM)) for entry CC(C)CCCCCOC(=O)CSC(C[N+](=O)[O-])c1ccccc1F (stereo not drawn) [Example 42] is 0

I looked up O=C(O)CSC(C[N+](=O)[O-])c1cccs1 (stereo not drawn) [Example 181] and its TSM (300 ppm) rating for Tetranychus urticae (OP-resistant strain), 2-spotted spider mite (TSM) was 0

GET /values?item= COc1cccc(C(C[N+](=O)[O-])SCC(=O)OCc2ccccc2)c1 (racemic) [Example 107] &system= Tetranychus urticae (OP-resistant strain), 2-spotted spider mite (TSM) returns TSM (300 ppm) rating: 0

Tested on Tetranychus urticae (OP-resistant strain), 2-spotted spider mite (TSM), the item CCCCOC(=O)CSc1c(F)c(F)c(C(C[N+](=O)[O-])SCC(=O)OCCCC)c(F)c1F (stereo not drawn) [Example 147] showed TSM (300 ppm) rating equal to 0

Readout TSM (300 ppm) rating for CCOC(=O)CSC(c1ccccc1)C(C)[N+](=O)[O-] (stereo not drawn) [Example 151] , test system Tetranychus urticae (OP-resistant strain), 2-spotted spider mite (TSM), was 0

COC(=O)CSC(C[N+](=O)[O-])c1ccccc1F (stereo not drawn) [Example 39] tested on Tetranychus urticae (OP-resistant strain), 2-spotted spider mite (TSM) gave TSM (300 ppm) rating: 0

Value (TSM (300 ppm) rating, Tetranychus urticae (OP-resistant strain), 2-spotted spider mite (TSM)) for record CCCCOC(=O)CSC(C[N+](=O)[O-])c1cccc(OC)c1 (stereo not drawn) [Example 57] = 0

====

Recorded WCR (50 ppm) rating for the following compounds
tested on: Diabrotica virgifera virgifera Leconte, 2nd instar western corn rootworm (WCR); test: Western corn rootworm (WCR) soil test; assay type: in vivo; set-up: key: 0 = no effect; 1 = 10-25% kill; 2 = 26-35% kill; 3 = 36-45% kill; 4 = 46-55% kill; 5 = 56-65% kill; 6 = 66-75% kill; 7 = 76-85% kill; 8 = 86-99% kill; 9 = 100% kill
Give your answer as a number; write no unit.

Record excerpt, results attached:
CCCOC(=O)CSC(C[N+](=O)[O-])c1c(Cl)cccc1Cl (stereo not drawn)
0
CCCCOC(=O)CSC(C[N+](=O)[O-])c1ccc2ccccc2c1 (racemic)
0
O=C(O)CSC(C[N+](=O)[O-])c1cc(Br)cs1 (stereo not drawn)
0
CCCSC(C[N+](=O)[O-])c1cccnc1 (stereo not drawn)
0
CCCCOC(=O)CSC(C[N+](=O)[O-])c1ccc(OC(F)(F)F)cc1 (racemic)
0

WCR (50 ppm) rating for Diabrotica virgifera virgifera Leconte, 2nd instar western corn rootworm (WCR) with input CCOC(=O)CSC(C[N+](=O)[O-])c1c(Cl)cccc1Cl (stereo not drawn) equals 0

Form field WCR (50 ppm) rating for item CCCSC(C[N+](=O)[O-])c1ccc2c(c1)OCO2 (stereo not drawn) on Diabrotica virgifera virgifera Leconte, 2nd instar western corn rootworm (WCR): 0

Let me check: CC(C)CCCCCOC(=O)CSC(C[N+](=O)[O-])c1ccc(F)cc1 (stereo not drawn) , system Diabrotica virgifera virgifera Leconte, 2nd instar western corn rootworm (WCR), measured WCR (50 ppm) rating is 0
